Source: patent US7601746B2

# experimental.target: human TPO receptor (hTPOR) (Homo sapiens)
# Construct: expressed in transfected cells; host or cells: BaF-B03 (murine IL-3 dependent cell line)
# Sequence (P40238 26-635): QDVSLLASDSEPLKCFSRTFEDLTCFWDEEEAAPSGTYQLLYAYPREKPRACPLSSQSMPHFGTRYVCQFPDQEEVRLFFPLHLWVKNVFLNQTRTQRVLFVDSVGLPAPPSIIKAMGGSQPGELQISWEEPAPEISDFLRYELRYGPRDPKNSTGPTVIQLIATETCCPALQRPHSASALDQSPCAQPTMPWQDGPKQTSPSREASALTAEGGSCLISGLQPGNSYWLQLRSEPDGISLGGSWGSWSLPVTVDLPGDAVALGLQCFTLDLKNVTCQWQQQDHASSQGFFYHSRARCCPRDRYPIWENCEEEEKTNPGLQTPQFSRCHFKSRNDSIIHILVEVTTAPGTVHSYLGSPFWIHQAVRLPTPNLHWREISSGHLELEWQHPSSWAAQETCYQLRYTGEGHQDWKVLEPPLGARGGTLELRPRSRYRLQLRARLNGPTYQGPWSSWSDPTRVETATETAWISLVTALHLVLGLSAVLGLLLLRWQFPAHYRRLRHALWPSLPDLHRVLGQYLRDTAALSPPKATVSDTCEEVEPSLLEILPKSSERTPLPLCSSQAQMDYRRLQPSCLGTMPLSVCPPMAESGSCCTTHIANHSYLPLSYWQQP
# assay.overview: Thrombopoietic activity: proliferation of TPO dependent BaF/hTPOR cells (WST-1, absorbance at 450 nm)
# Format: cell-based
# assay.context: 20 h + 4 h WST-1, ED50 = half concentration of the concentration showing the maximum thrombopoietic activity, Table 1
# Method: The TPO dependent BaF/hTPOR cell line which was established by introducing human TPO receptor (hTPOR) into BaF-B03 cells according to Collins et al (J. Cell. Physiol., 137:293-298 (1988)) was used to test the thrombopoietic activity of the present compound. The DNA sequences and encoded peptide sequences for human hTPOR have been described by Vigon et al (Proc. Natl. Acad. Sci. USA, 89:5640-5644 (1992)). […] The absorbance at 450 nm was measured. […]
measure.name: pEC50
Give only the number. pEC50 is defined as minus log10 of concentration in molar units.

Below, each entry is followed by its recorded pEC50 result.
compound: CCCOCCCc1cccc(-c2csc(NC(=O)c3cc(Cl)c(C=C(C)C(=O)O)c(Cl)c3)n2)c1F
pEC50: 9.09

compound: CCCCCCCCCCOCc1cccc(-c2csc(NC(=O)c3cc(Cl)c(C=C(C)C(=O)O)c(Cl)c3)n2)c1F
pEC50: 8.53

compound: CCCCCCCCCCC(OC)c1cccc(-c2csc(NC(=O)c3cc(F)c(/C=C(\C)C(=O)O)c(F)c3)n2)c1OC (centres unmarked)
pEC50: 8.48

compound: CCCCCOC(c1cccc(-c2csc(NC(=O)c3cc(F)c(C=C(C)C(=O)O)c(F)c3)n2)c1F)C(C)(C)C (centres unmarked)
pEC50: 9.14

compound: CCCC(CCC)(OC)c1cccc(-c2csc(NC(=O)c3cc(F)c(C=C(C)C(=O)O)c(F)c3)n2)c1F
pEC50: 8.40

The value of pEC50 measured for the compound CC(=Cc1c(Cl)cc(C(=O)Nc2nc(-c3cccc(CCCOCCC4CCCC4)c3F)cs2)cc1Cl)C(=O)O turned out to be 8.82

Given item CCCCCOC(c1cccc(-c2csc(NC(=O)c3cc(F)c(C=C(C)C(=O)O)c(F)c3)n2)c1F)C1CCCCC1 (centres unmarked) , the value recorded as its pEC50 is 9.14

Record CCCCCCOCCCc1cccc(-c2csc(NC(=O)c3cc(F)c(/C=C(\C)C(=O)O)c(F)c3)n2)c1OC , field pEC50: 7.92

The compound listed as CCC(CC)COCCc1cccc(-c2csc(NC(=O)c3cc(Cl)c(/C=C(\OC)C(=O)O)c(Cl)c3)n2)c1OC shows pEC50 equal to 7.99

Per the records, this compound ( COc1c(CCCOCC2CCCC2)cccc1-c1csc(NC(=O)c2cc(Cl)c(/C=C(\C)C(=O)O)c(Cl)c2)n1 ) has pEC50 equal to 7.88

Quick note, pEC50 for CCc1cccc2c1OCc1sc(NC(=O)c3cc(Cl)c(/C=C(\C)C(=O)O)c(Cl)c3)nc1-2 landed at 7.91

The recorded pEC50 for CCC(CC)COCCc1cccc(-c2csc(NC(=O)c3cc(F)c(/C=C(\C)C(=O)O)c(F)c3)n2)c1OC is 7.95
